Tested on: SW-620 colon
Experiment: NCI-60 one-dose screen, 48 h (100 = growth as untreated, 0 = no growth, -100 = all killed)
Measurement Setup: 10 µM
Compounds without any hit were thinned out: in the full panel of roughly 83,000, 20% have a hit.
Attribute Measured: growth (%)
Kindly answer with a numeric value in %, unit omitted.

Compound	growth, %
CC(C)c1[nH]nc2c(NCc3ccc(-c4ccccn4)cc3)nc(SCCN)nc12	5.99
CC(C)/C=N/NC(N)=S	76.4
CCOC(=O)c1sc(Nc2ncccn2)nc1-c1ccccn1	95.6
COc1ccc(C(=O)n2nc(CC(=O)NCc3ccccc3)nc2N)cc1	105
COc1cc(-c2nc3cc(Cl)c(Cl)cc3[nH]2)ccc1OCC(=O)NN	80.9
O=C(COCc1c(-c2ccccc2)no[n+]1[O-])Nc1nc(-c2ccc(Cl)cc2)cs1	101

Problem: Name the recorded growth for `CCOC(=O)c1c(Cl)c2c(n1Cc1cccc(OC)c1)-c1oncc1CC2` .
Solution: 34.5

Problem: Name the recorded growth for `CCCCCCCCCCCCCCCCCBr` .
Solution: 107

Problem: Name the recorded growth for CCOc1cc(Br)c(C(C)NC(=O)c2cccc(OC)c2)cc1OCC (stereo unspecified) .
Solution: 85.7

Problem: Name the recorded growth for `COc1cc(-c2cc(-c3ccc(C)cc3)nc3nc(N)[nH]c(=O)c23)ccc1Oc1ccnc2cc(Cl)ccc12` .
Solution: 98.2

Problem: Name the recorded growth for `O=[N+]([O-])c1ccc(S(=O)(=O)OCCCCOS(=O)(=O)c2ccc([N+](=O)[O-])cc2)cc1` .
Solution: 102
